Reported HEK-Blue activity, No BP, DF-1,000,000 values follow for various binders
Target: T1, IL-18 receptors on HEK-Blue IL-18 reporter cells (UniProt Q13478 19-541; O95256 20-599, limits assumed); also: unit not given here
T1 sequence (looked up) 1: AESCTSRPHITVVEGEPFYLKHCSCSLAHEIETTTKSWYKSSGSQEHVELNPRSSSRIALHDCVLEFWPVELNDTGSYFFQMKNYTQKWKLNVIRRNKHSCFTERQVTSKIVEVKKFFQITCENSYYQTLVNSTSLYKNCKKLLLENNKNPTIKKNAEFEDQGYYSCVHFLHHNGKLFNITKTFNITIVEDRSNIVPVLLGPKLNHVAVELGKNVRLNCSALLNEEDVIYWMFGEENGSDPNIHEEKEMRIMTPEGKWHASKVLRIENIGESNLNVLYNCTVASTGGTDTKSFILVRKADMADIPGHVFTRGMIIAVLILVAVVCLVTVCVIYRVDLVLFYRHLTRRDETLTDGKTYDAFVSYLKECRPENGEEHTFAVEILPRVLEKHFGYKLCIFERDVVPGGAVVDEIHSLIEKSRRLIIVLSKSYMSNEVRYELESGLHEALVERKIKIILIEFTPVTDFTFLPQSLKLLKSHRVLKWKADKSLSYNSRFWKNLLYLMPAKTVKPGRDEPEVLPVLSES
T1 sequence (looked up) 2: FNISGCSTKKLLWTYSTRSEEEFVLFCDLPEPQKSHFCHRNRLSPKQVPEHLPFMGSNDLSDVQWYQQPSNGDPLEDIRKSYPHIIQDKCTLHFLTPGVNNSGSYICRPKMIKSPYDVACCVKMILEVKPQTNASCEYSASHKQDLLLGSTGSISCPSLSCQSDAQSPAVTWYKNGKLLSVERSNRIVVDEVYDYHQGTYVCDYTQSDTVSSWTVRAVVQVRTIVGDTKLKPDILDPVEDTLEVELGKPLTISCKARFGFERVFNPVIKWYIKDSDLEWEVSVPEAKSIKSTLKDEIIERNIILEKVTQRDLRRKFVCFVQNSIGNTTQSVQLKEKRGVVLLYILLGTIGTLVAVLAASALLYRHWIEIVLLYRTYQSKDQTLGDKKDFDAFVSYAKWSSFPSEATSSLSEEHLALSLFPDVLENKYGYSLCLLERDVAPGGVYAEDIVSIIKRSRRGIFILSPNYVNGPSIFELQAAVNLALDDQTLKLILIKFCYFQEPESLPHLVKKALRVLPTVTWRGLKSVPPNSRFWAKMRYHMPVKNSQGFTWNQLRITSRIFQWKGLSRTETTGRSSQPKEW
Test: cell-based or functional assay
The answer should be written as a number, with no unit following it.

Consider the worked cases shown below.
IL-18 variant T34S, S36L, D37E, D40Y, N41M, K53T, S55K, P107K, H109Q (ligand) YFGKLESKLSVIRNLNDQVLFIDQGNRPLFEDMSDLEMRYMAPRTIFIISMYTDKQPRGMAVTISVKSEKISTLSSENKIISFKEMNPPDNIKDTKSDIIFFQRSVKGQDNKMQFESSSYEGYFLASEKERDLFKLILKKEDELGDRSIMFTVQNED: 0.09
IL-18 variant K53D, S55Q, P107M (ligand) YFGKLESKLSVIRNLNDQVLFIDQGNRPLFEDMTDSDMRDNAPRTIFIISMYDDQQPRGMAVTISVKSEKISTLSSENKIISFKEMNPPDNIKDTKSDIIFFQRSVMGHDNKMQFESSSYEGYFLASEKERDLFKLILKKEDELGDRSIMFTVQNED: 0.13

Please find the next binder below.
Entry IL-18 variant K53H, S55Y, Q56H (ligand) YFGKLESKLSVIRNLNDQVLFIDQGNRPLFEDMTDSDMRDNAPRTIFIISMYHDYHPRGMAVTISVKSEKISTLSSENKIISFKEMNPPDNIKDTKSDIIFFQRSVPGHDNKMQFESSSYEGYFLASEKERDLFKLILKKEDELGDRSIMFTVQNED : reported HEK-Blue activity, No BP, DF-1,000,000 = ? 0.09

Cited source: patent US20240182536A1
